Reported log(activity) by item:
- target system: D(2) dopamine receptor (Homo sapiens) (UniProt P14416)
- Sequence (P14416 whole entry): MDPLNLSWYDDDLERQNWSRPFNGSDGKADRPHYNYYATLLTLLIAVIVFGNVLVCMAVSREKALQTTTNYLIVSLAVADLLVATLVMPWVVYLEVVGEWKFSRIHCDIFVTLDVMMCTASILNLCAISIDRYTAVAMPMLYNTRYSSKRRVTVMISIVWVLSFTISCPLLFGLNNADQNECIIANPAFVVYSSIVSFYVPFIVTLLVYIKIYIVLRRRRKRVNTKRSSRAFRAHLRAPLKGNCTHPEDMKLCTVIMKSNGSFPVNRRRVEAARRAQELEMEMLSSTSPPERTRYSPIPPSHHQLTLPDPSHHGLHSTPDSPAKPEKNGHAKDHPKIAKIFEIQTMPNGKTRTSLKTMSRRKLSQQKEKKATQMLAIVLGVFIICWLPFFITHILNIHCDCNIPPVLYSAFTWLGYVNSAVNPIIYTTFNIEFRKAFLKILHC
- experiment summary: Displacement of [3H]Raclopride from recombinant human D2L receptor expressed in Flp-In CHO cell membranes assessed as co-operativity factor after 2 to 3 hrs by microbeta counting method
Please respond with just the number, no unit label.

Worked set:
{"columns": ["smiles", "experimental readout", "experimental result"],
 "data": [
  ["CCN(CC)c1ncnc2sccc12", "log(activity)", -1.01],
  ["FC(F)(F)c1cccc(Nc2nc(CC3CCOCC3)nc3sc4c(c23)CCCC4)c1", "log(activity)", -0.41]
]}

Query: Fill in: log(activity) of `FC(F)(F)c1cccc(Nc2ncnc3sc4c(c23)CCCC4)c1` is ___
Result: -0.41

Query: Fill in: log(activity) of `FC(F)(F)c1cccc(Nc2nc(CN3CCOCC3)nc3scc(-c4ccccc4)c23)c1` is ___
Result: -0.88

Query: Fill in: log(activity) of `CCN(CC)c1nc(CN2CCOCC2)nc2sc3c(c12)CCCC3` is ___
Result: -0.64

Query: Fill in: log(activity) of `FC(F)(F)c1cccc(Nc2nc(CCCCN3CCOCC3)nc3sc4c(c23)CCCC4)c1` is ___
Result: -1.03

---

- target system: D(2) dopamine receptor (Homo sapiens)
- experiment summary: Negative allosteric modulation of recombinant human D2L receptor expressed in Flp-In CHO cells assessed as inhibition of dopamine-induced reduction in forskolin stimulated cAMP accumulation preincubated for 30 mins followed by forskolin stimulation and measured after 30 mins by BRET assay
- Type: functional, cell-based
Reported pKb by item:
Please respond with just the number, no unit label.

{"columns": ["smiles", "target system", "pKb"],
 "data": [
  ["Oc1cccc(Nc2nc(CN3CCOCC3)nc3sc4c(c23)CCCC4)c1", "D(2) dopamine receptor (Homo sapiens)", 5.55],
  ["FC(F)(F)c1cccc(Nc2ncnc3sccc23)c1", "D(2) dopamine receptor (Homo sapiens)", 6.13],
  ["FC(F)(F)c1cccc(Nc2nc(CN3CCCCC3)nc3sc4c(c23)CCCC4)c1", "D(2) dopamine receptor (Homo sapiens)", 5.16],
  ["CN(C)c1nc(CN2CCOCC2)nc2sc(Cc3ccccc3)cc12", "D(2) dopamine receptor (Homo sapiens)", 5.31],
  ["Fc1cccc(Nc2nc(CN3CCOCC3)nc3sc4c(c23)CCCC4)c1", "D(2) dopamine receptor (Homo sapiens)", 5.08]
]}

Alright, here's another compound for you.
Query: Fill in: pKb of `CCN(CC)c1ncnc2sccc12` is ___
Result: 5.31

---

Reported pKb by item:
- target system: D(3) dopamine receptor (Homo sapiens) (UniProt P35462)
- Sequence (P35462 whole entry): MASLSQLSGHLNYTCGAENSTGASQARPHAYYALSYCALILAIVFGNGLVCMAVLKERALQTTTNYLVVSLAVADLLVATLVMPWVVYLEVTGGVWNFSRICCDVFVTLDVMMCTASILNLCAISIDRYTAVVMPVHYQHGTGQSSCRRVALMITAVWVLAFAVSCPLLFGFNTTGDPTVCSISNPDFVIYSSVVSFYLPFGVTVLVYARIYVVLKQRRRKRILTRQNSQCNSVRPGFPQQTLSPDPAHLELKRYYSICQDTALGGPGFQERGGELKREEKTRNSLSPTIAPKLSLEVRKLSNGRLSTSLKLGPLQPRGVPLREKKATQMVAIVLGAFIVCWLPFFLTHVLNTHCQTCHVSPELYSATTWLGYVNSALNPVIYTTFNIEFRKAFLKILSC
- experiment summary: Displacement of [3H]Raclopride from recombinant D3 receptor (unknown origin) expressed in Flp-In CHO cell membranes after 2 to 3 hrs by microbeta counting method
Please respond with just the number, no unit label.

Worked set:
{"columns": ["smiles", "experimental result"],
 "data": [
  ["CCN(CC)c1nc(CCCCN2CCOCC2)nc2sccc12", 6.06],
  ["CCN(CC)c1nc(CN2CCOCC2)nc2sc3c(c12)CCCC3", 3.85],
  ["FC(F)(F)c1cccc(Nc2nc(CN3CCOCC3)nc3sc4c(c23)CCCC4)c1", 6.54],
  ["CCN(CC)c1nc(CCCCN2CCOCC2)nc2sc3c(c12)CCCC3", 4.99],
  ["CCN(CC)c1nc(CN2CCOCC2)nc2sccc12", 4.95],
  ["FC(F)(F)c1cccc(Nc2nc(CCCCN3CCOCC3)nc3sc4c(c23)CCCC4)c1", 3.97]
]}

Alright, here's another compound for you.
Query: Fill in: pKb of `FC(F)(F)c1cccc(Nc2nc(CC3CCOCC3)nc3sc4c(c23)CCCC4)c1` is ___
Result: 4.28
